Target of assay: human plasma kallikrein (Homo sapiens)
Sequence (P03952 391-638 limits assumed): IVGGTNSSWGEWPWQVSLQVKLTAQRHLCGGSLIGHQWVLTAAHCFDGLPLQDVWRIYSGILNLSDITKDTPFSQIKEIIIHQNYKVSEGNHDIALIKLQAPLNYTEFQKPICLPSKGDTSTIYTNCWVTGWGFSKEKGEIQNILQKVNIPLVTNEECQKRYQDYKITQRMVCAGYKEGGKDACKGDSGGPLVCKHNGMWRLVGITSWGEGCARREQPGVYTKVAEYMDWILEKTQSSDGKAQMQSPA
Sequence (P03952 20-390 partner limits assumed): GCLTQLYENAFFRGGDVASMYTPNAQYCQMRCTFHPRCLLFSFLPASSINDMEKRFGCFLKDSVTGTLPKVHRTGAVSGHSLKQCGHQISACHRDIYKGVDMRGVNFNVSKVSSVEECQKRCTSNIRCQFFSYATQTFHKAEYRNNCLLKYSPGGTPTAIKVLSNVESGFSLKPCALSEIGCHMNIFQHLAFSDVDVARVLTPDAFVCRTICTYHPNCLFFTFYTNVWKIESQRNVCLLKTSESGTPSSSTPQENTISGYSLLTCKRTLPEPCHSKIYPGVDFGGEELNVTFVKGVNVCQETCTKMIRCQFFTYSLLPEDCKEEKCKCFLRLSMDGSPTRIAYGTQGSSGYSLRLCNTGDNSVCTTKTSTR
Method description: Anti-plasma kallikrein activity: inhibition of S-2302 decomposition
Assay type: biochemical
Details: Table 2; S-2302 substrate, pH 7.8, 37° C.; read-out: Plasma Kallikrein S-2302 (I50)
pIC50: −log10 of the molar value. Structures can show the parent of a compound that is named as a salt.
Listed here: items and their measured pIC50.
Measurement label: pIC50

Molecule | Result number
NC[C@H]1CC[C@H](C(=O)N[C@@H](Cc2ccc(OCc3ccccc3)cc2)C(=O)Nc2ccc(C(=O)c3ccccc3)cc2)CC1 | 5.92
NC[C@H]1CC[C@H](C(=O)N[C@@H](Cc2ccc(Oc3cc(Cl)ccc3[N+](=O)[O-])cc2)C(=O)Nc2ccncc2)CC1 [Compound No. 137, dihydrochloride] | 6.18
C=CCOc1ccc(C[C@H](NC(=O)[C@H]2CC[C@H](CN)CC2)C(=O)Nc2ccc(C(C)=O)cc2)cc1 | 5.85

Hello, the source for this data is patent US4895842A, in case you need it.
